assayed target: HLA-B*39:01
method: IEDB peptide-MHC binding, purified MHC/competitive/fluorescence; filed as Kd, often an IC50 or EC50 that approximates it; bounds were set here for any values at or beyond the usual limits of such assays
protocol conditions: source organism: Reston ebolavirus
attribute measured: Kd

Please report the recorded Kd for RTYSLLNRK .
≥ 20 µM

###

assayed target: HLA-B*46:01
method: IEDB peptide-MHC binding, purified MHC/competitive/fluorescence; filed as Kd, often an IC50 or EC50 that approximates it; bounds were set here for any values at or beyond the usual limits of such assays
protocol conditions: source organism: Bacillus cereus G9241
pKd: −log10 of the molar value.
attribute measured: pKd

Query pKd on HLA-B*46:01 for DEEAINLFH
≤ 4.70

###

assayed target: HLA-B*58:01
method: IEDB peptide-MHC binding, purified MHC/direct/fluorescence; filed as Kd, often an IC50 or EC50 that approximates it; bounds were set here for any values at or beyond the usual limits of such assays
protocol conditions: source organism: Zaire ebolavirus
attribute measured: Kd (nM)
Hi! Could you send only the number? It should be in nM, unit omitted.

Param readout= Kd; system= HLA-B*58:01; entry= GLIQYPTAW ; returns value.
500

###

assayed target: HLA-B*18:01
method: IEDB peptide-MHC binding, purified MHC/direct/fluorescence; filed as Kd, often an IC50 or EC50 that approximates it; bounds were set here for any values at or beyond the usual limits of such assays
protocol conditions: source organism: Vibrio parahaemolyticus
attribute measured: Kd (nM)
Form entry: value (nM) — number only.

What does the record list as Kd for DEYQGNHMF ?
0.6

###

assayed target: HLA-B*18:01
method: IEDB peptide-MHC binding, purified MHC/direct/fluorescence; filed as Kd, often an IC50 or EC50 that approximates it; bounds were set here for any values at or beyond the usual limits of such assays
protocol conditions: source organism: Francisella tularensis subsp. holarctica LVS
attribute measured: pKd
Convention used: pKd is expressed as -log10 of the molar concentration.

GET /values?readout=pKd&system=HLA-B*18:01&item= AEVCAHHLF
8.44

###

assayed target: HLA-A*03:01
method: IEDB peptide-MHC binding, purified MHC/competitive/fluorescence; filed as Kd, often an IC50 or EC50 that approximates it; bounds were set here for any values at or beyond the usual limits of such assays
protocol conditions: source organism: Bacillus cereus G9241
pKd: −log10 of the molar value.
attribute measured: pKd

I have this sequence here, DEEAINLFH , and I need its recorded pKd.
≤ 4.70

###

What IC50 was measured for each of the following?
assayed target: HLA-A*02:01
method: IEDB peptide-MHC binding, purified MHC/competitive/fluorescence; bounds were set here for any values at or beyond the usual limits of such assays
protocol conditions: source organism: Vaccinia virus

GET /values?readout=IC50&system=HLA-A*02:01&item= RSLETDLRS
≥ 158 µM

For the record RNLNVTTQS , what value of IC50 is listed for HLA-A*02:01?
≥ 558 µM

###

assayed target: HLA-B*15:17
method: IEDB peptide-MHC binding, purified MHC/direct/fluorescence; filed as Kd, often an IC50 or EC50 that approximates it; bounds were set here for any values at or beyond the usual limits of such assays
protocol conditions: source organism: Coxiella burnetii
attribute measured: pKd
Units for pKd: none; it is -log10 of a concentration expressed in mol/L.

Which measured pKd value corresponds to ITLYEYDHF ?
7.90
